Provenance of the data: patent US12503473B2

SYSTEM NAME: MCT4 (Homo sapiens, UniProt O15427)
Sequence (O15427 whole entry): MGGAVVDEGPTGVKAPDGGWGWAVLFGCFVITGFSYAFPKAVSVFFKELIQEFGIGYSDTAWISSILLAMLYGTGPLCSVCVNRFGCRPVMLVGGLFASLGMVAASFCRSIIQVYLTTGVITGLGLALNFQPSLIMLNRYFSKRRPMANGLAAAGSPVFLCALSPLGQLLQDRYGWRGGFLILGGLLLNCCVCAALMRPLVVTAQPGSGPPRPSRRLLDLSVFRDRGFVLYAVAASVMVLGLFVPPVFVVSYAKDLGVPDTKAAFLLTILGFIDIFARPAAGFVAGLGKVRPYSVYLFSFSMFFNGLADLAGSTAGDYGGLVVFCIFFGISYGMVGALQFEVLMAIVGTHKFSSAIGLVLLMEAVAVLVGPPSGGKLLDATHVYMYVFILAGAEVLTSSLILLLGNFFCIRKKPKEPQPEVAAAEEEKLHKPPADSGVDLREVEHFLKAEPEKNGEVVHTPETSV
ASSAY COMMENT: Assay (a): lactate efflux from SK-Br-3 cells (lactate in media, 4 h)
Type: cell-based
Design: a natively glycolytic human breast adenocarcinoma line predominantly expressing MCT4; host or cells: SK-Br-3
SETTINGS: mean of at least three repeats (Example 32, marked *, two repeats), read-out: MCT4 lactate efflux pIC50 (SKBR3) (converted)
Checkbox rule: IC50 lower than 0.8 nM = condition met; IC50 not lower than 0.8 nM = condition not met.

Field: example entries. Status: answers known.
>>> print(df.to_string())
                                   compound        group_label
0  Cc1nc2nc(C)c(C[C@@H]3CCN(c4cnc(-c5ccc(CN6C[C@@H](C)N(C)C[C@H]6C)cc5)cn4)C3)c(C)n2n1 [Example 35]      condition met
1  Cc1nc2nc(C)c(C[C@@H]3CCN(c4cnc(-c5ccc(CN6C[C@@H](C)N[C@@H](C)C6)cc5)nc4)C3)c(C)n2n1 [Example 14]  condition not met
2  Cc1nc2nc(C)c(C[C@@H]3CCN(c4ccc(-c5ccc(CN6CCOCC6)cn5)cc4)C3)c(C)n2n1 [Example 23]      condition met
3  Cc1nc2nc(C)c(C[C@@H]3CCN(c4ccc(-c5ccc(CN6CCN(C)CC6)cn5)cc4)C3)c(C)n2n1 [Example 27]      condition met
4  Cc1nc2nc(C)c(C[C@@H]3CCN(c4cnc(-c5ccc(CN6C[C@@H](C)N(C)C[C@@H]6C)cc5)cn4)C3)c(C)n2n1 [Example 36]      condition met
5  Cc1nc2nc(C)c(O[C@@H]3CCN(c4ccc(-c5ccc(CN6CCN7CCC[C@H]7C6)nn5)cc4)C3)c(C)n2n1 [Example 68]  condition not met

Consider the additional compound presented here.
Query: Would you kindly verify if IC50 of Cc1nc2nc(C)c(C[C@@H]3CCN(c4cnc(-c5ccc(CN6CCOCC6)cn5)c(C)n4)C3)c(C)n2n1 [Example 47] is strictly less than 0.8 nM?
Response: condition not met
